Target System: T1, rat PAI-1 (rat, UniProt P20961 24-402)
T1 sequence: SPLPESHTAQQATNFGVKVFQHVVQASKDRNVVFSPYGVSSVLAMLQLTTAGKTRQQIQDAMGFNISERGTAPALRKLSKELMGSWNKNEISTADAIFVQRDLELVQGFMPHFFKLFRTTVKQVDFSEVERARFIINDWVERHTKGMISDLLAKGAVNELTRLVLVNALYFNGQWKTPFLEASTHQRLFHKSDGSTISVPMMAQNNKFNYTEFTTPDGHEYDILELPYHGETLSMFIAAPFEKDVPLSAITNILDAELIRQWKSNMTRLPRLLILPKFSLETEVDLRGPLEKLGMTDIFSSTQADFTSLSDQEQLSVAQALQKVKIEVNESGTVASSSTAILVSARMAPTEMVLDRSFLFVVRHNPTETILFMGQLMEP
Protocol Text: cell-based or functional assay

- Binder: "Antibody 01 IgG1, not germlined (antibody, V domains shown) VH: QVQLVQSGAEVKKPGSSVKVSCKASGGTFSSYAISWVRQAPGQGLEWMGGIIPIFGTANYAQKFQGRVTITADESTSTAYMELSSLRSEDTAVYYCAREKRQWLEGHFDYWGRGTLVTVSS VL: DIQMTQSPSTLSASVGDRVTITCRASEGIYRSLAWYQQKPGKAPKLLIYKASSLASGVPSRFSGSGSGTEFTLTISSLQPDDFATYYCQQYSNYPLTFGGGTKVEIK"
  Chromogenic IC50 ratio rat/human: "66.2 fold"
- Binder: "Antibody 12 scFv (scFv) QVQLQQSGAEVKKPGSSVKVSCKASGGTFSSYAISWVRQAPGQGLEWMGGIIPTFPTANYAQKFQGRVTITADESTSTAYMELSGLRSEDTAVYYCAREKRQWLEGHFDYWGRGTPVTVSSDIQMTQSPSFLSASIGDRVTITCRASEGIYHNLAWYQQKPGKAPKLLIYRASSLASGAPSRFSGSGSGTDFTLTISSLQPDDFATYYCQQYSNYPLTFGGGTKLEIK"
  Chromogenic IC50 ratio rat/human: "34.4 fold"
- Binder: "Antibody 26 scFv (scFv) QVQLQQSGAEVKKPGTSVKVSCKASGGTFSSYAISWVRQAPGQGLEWMGGIIPIFGTANYAQKFQGRVTITADESTSTAYMELSSLRSEDTAVYYCAREKRQWLEGHFDYWGRGTPVTVSSDIQMTQSPSFLSASIGDRVTITCRASEGIYHTLAWYQQKPGKAPKLLIYRASSLASGAPSRFSGSGSGTDFTLTISSLQPDDFATYYCQQYSNYPLTFGGGTKLEIK"
  Chromogenic IC50 ratio rat/human: "61.4 fold"
